Numbers sourced from patent US20230002387A1.

# measured_target: ENPP1 (Homo sapiens)
# Sequence (P22413 whole entry): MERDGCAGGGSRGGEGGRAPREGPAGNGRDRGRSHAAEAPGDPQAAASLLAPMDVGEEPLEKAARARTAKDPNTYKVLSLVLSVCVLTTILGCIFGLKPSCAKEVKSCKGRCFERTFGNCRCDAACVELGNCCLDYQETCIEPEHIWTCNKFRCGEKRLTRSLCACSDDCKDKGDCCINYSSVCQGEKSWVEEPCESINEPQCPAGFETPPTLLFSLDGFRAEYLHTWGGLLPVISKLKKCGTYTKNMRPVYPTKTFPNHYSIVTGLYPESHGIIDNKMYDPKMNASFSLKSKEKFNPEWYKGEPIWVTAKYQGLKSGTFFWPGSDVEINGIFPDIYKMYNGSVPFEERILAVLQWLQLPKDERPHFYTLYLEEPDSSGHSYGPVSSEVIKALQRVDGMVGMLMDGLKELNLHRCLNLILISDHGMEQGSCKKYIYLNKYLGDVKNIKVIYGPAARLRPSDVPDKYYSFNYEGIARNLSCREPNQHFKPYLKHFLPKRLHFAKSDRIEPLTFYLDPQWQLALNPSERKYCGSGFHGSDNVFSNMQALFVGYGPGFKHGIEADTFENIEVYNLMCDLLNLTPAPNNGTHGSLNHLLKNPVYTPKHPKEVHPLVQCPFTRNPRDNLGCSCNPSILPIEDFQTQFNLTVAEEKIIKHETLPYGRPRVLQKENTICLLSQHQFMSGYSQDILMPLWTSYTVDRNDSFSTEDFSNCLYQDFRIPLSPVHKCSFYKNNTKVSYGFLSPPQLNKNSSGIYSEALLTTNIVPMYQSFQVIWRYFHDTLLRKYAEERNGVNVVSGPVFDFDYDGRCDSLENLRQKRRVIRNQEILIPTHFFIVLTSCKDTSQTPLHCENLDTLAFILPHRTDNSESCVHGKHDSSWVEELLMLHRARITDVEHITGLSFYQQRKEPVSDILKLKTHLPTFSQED
# assay_procedure: Capillary electrophoresis-based NPP assay with ATP as a substrate (ENPP1 inhibition, Ki)
# Format: biochemical
# assay_context: bin of Table 2; Ki from IC50 by Cheng-Prusoff, 400 μM ATP
pKi: −log10 of the molar value.

{"columns": ["mol_smiles", "pKi"],
 "data": [
  ["CCOc1nc(NC(=O)[C@H](CC)Sc2nc(N)nc3nc[nH]c23)ncc1F", "≥ 7.00"],
  ["COc1ccnc(NC(=O)[C@H](CCc2ccccc2)Sc2nc(N)nc3nc[nH]c23)n1", "≥ 7.00"],
  ["COc1ccnc(NC(=O)[C@@H](Cc2ccccc2)Sc2nc(N)nc3nc[nH]c23)n1", "≥ 7.00"],
  ["CC[C@H](Sc1nc(N)nc2nc[nH]c12)C(=O)Nc1ncc(Br)c(OC)n1", "≥ 7.00"],
  ["COc1nc(NC(=O)[C@H](Sc2nc(N)nc3nc[nH]c23)C(C)C)ncc1Br", "≥ 7.00"],
  ["COc1ccnc(NC(=O)[C@@H](Sc2nc(N)nc3nc[nH]c23)C(C)C)n1", "≥ 7.00"],
  ["Nc1nc(SCC(=O)Nc2ccc3ncsc3c2)c2[nH]cnc2n1", "≥ 7.00"],
  ["COc1ccnc(NC(=O)CSc2nc(N)nc3nc[nH]c23)c1", "≥ 7.00"]
]}
